# test details: Inhibition of Mycobacterium tuberculosis PTPB
readout kind: pIC50
// pIC50: -log10(molar conc.)

Inquiry: Using the record for NC(=O)c1cc[n+](CC2=C(C(=O)O)N3C(=O)[C@@H](NC(=O)[C@@H](c4ccccc4)S(=O)(=O)[O-])[C@H]3SC2)cc1 [CEFSULODIN SODIUM] , report its pIC50.
Reply text: 4.80

---

# test details: Reversible competitive inhibition of Mycobacterium tuberculosis PTPB expressed in Escherichia coli BL21/DE3 cells using pNPP as substrate after 5 mins
readout kind: pKi
// pKi: -log10(molar conc.)

Inquiry: Using the record for NC(=O)C(c1ccccc1)S(=O)(=O)O (stereo unspecified) , report its pKi.
Reply text: 4.13
